- Tested on: MALME-3M melanoma
- Test Summary: NCI-60 one-dose screen, 48 h
- Stated Conditions: 10 µM unless noted
This is part of a sample that, as a whole, favours compounds with a hit. Of some 83,000 tested, about 20% had one in any assay. Active and inactive are the calls of the source. How the source made its calls: active means growth percent below 10; inactive means the rest.
Outcome field: choose from t for active, f for inactive

Given Smiles | Class Name
O=C(O)c1ccc(-n2cc(CNc3ccc(C(F)(F)F)cc3)c(-c3ccccc3)n2)cc1 | f
Cc1cc(C)c(S(=O)(=O)N2CCN(c3cc4c(cc3F)c(=O)c(C(=O)O)cn4C3CC3)CC2)c(C)c1 | f
Nc1nc(-c2cc3ccccc3o2)cc(=O)c(=O)[nH]1 | f
Nc1c(C(=O)Nc2cccc(C(F)(F)F)c2)sc2nc3c(cc12)CCCCCC3 | t

Exercise: Returns: the outcome recorded for "N#Cc1ncc(-c2ccc(F)c(F)c2F)c(NC2CCCCCC2)n1" in this assay.
Key: f
